molecular target: HLA-A*11:01-… (human; Epstein Barr Virus); assay: HLA-peptide multimer staining and single-cell sorting of CD8+ T cells, paired TCR sequencing

binder	binding result
TCR Clone 2 of Donor R7Z in Table 3 (TCR, V domains shown, also called Donor R7Z Clone 2) V domain 1: GIQVEQSPPDLILQEGANSTLRCNFSDSVNNLQWFHQNPWGQLINLFYIPSGTKQNGRLSATTVATERYSLLYISSSQTTDSGVYFCAVVINNDMRFGAGTRLTVKP V domain 2: DSGVTQTPKHLITATGQRVTLRCSPRSGDLSVYWYQQSLDQGLQFLIQYYNGEERAKGNILERFSAQQFPDLHSELNLSSLELGDSALYFCASSVAPFYEQYFGPGTRLTVTE	binds
TCR Clone 1 of Donor T3V in Table 3 (TCR, V domains shown, also called Donor T3V Clone 1) V domain 1: DQQVKQNSPSLSVQEGRISILNCDYTNSMFDYFLWYKKYPAEGPTFLISISSIKDKNEDGRFTVFLNKSAKHLSLHIVPSQPGDSAVYFCAASAGGQNFVFGPGTRLSVLP V domain 2: DAGITQSPRHKVTETGTPVTLRCHQTENHRYMYWYRQDPGHGLRLIHYSYGVKDTDKGEVSDGYSVSRSKTEDFLLTLESATSSQTSVYFCAIRRGGSSYNEQFFGPGTRLTVLE	binds
TCR Clone 1 of Donor R7Z in Table 3 (TCR, V domains shown, also called Donor R7Z Clone 1) V domain 1: KQEVTQIPAALSVPEGENLVLNCSFTDSAIYNLQWFRQDPGKGLTSLLLIQSSQREQTSGRLNASLDKSSGRSTLYIAASQPGDSATYLCAVWAGGTSYGKLTFGQGTILTVHP V domain 2: DVKVTQSSRYLVKRTGEKVFLECVQDMDHENMFWYRQDPGLGLRLIYFSYDVKMKEKGDIPEGYSVSREKKERFSLILESASTNQTSMYLCASSPAGRPGKPLHFGNGTRLTVTE	binds

Values from patent US20210380657A1
